# credit: patent US11013745B2

# Test system: Pfeiffer cells
# Assay Method Text: Pfeiffer cell growth inhibition in a long term (11 days), CellTiter-Glo
# Type: cell-based, Human
# Experimental Conditions: Homo sapiens, 264 h, read-out: Experiment on Pfeiffer cell growth inhibition in a long term (11 days IC50)
Item-by-item account of IC50
Hi! Could you send only the number? It should be in nM, unit omitted.

>  <Compound>
CS(=O)(=O)c1ccc(-c2cnc(NCc3ccco3)n3cnnc23)cc1 [EED226, reference compound]

>  <Subject Of Test>
Pfeiffer cells

>  <Measurement Label>
IC50

>  <Unit Of Measurement>
nM

>  <Value Reported>
52

$$$$

Okay, next one:
Exercise: Look up and report measured IC50 for this entry: "CCNC(=S)N1CC=C(c2cnc(NCc3c(F)ccc4c3CCO4)n3cnnc23)CC1"
Solution: 3
